The reported numbers originate from patent US10913773B2.

target: TNFα-TNFR1 interaction (Homo sapiens, UniProt P01375); construct: made in house; host or cells: Escherichia coli (TNFα); assay: ELISA inhibition of TNFα-TNFR1 interaction (immobilized biotinylated TNFα, TNFR1-HRP); type: binding; conditions: Table 5; peptides without Lys(FITC) label
Starred links: 1 amine or outer side, 2 acyl side, 3 side chain; linkers in the order of their positions; H or OH if unused. Positions of bridges follow the written chain, without caps; N, C: chain ends. Non-standard residues stand in square brackets, D forms with d. Residues, ends and D or L forms follow the SMILES beside them. Trimesoyl = O=C(c1cc(C(=O)[*:2])cc(C(=O)[*:3])c1)[*:1]; Nle = CCCC[C@H](N)C(=O)O; Dap = NC[C@H](N)C(=O)O; βAla = NCCC(=O)O
REPORTED_PROPERTY: IC50 (nM)
All answers are understood in nM, so give the number only.

Please look up its IC50: CCCC[C@@H]1NC(=O)c2cc3cc(c2)C(=O)NC[C@@H](C(=O)NCCC(=O)NCCC(N)=O)NC(=O)[C@H](Cc2c[nH]cn2)NC(=O)[C@@H](CCCCN)NC(=O)CNC(=O)[C@@H](Cc2c[nH]cn2)NC(=O)[C@H](Cc2c[nH]c4ccccc24)NC(=O)[C@H](CCCCNC3=O)NC(=O)[C@@H](CO)NC(=O)[C@H](Cc2ccc(O)cc2)NC1=O [Compound C1-67] ([Nle]Y[dS]KW[dH]G[dK]H[Dap][βAla][βAla]-NH2; linker N-4-10 via Trimesoyl)
1500
